Tested on: K4 kissing-loop RNA reporter;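 also: bound reporter read as fluorescence of individual clusters on recovered sequencing chips by microscopy, with normalized cluster intensities fitted with a binding model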
measurement protocol: apparent KD of K4 kissing-loop reporter; higher = weaker reporter binding
conditions used: Eterna round: R107; input ligand: tryptophan 2.4 mM
# apparent KD of K4 kissing-loop reporter per entry
Write the answer as a number in nM, unit excluded.

Some solved cases for reference:
{"sequence string": "GUAGGAUGAGGAGGAGGAUGAAUUACUGAAGGAGCGCAUAGAAAUGCAGGUAGGUCGCGGUAAAGAAGUAUAGUGAUGUUAUAUA [SSArgA.F]", "measurement label": "apparent KD of K4 kissing-loop reporter", "experimental value": 292}
{"sequence string": "GUGCAGUGAUGUUGCACGAGGAAAGACGAUACCAGCCGUAAAUAAGGCCCUUGGCAGCGUAGGCUAGCAUAAAGUACGCUAGUCC [Enarines]", "measurement label": "apparent KD of K4 kissing-loop reporter", "experimental value": 88.4}

# ---- query sequence ----
Documented apparent KD of K4 kissing-loop reporter of GGAGUGAUGUUCCAUUUUUAAAUCUCCGAUACCAGUAUGGAAACAUACCCUUGGCAGCGGUAAACCGCAGAUUAGGAAACUAGUC [Theophylline A K4 1] : 561
